Data origin: PubChem BioAssay (NCI)

- Tested on: DMS 273 small cell lung
- Protocol Notes: NCI tumour cell line growth inhibition, 48 h
Property Measured: TGI

* Brc1ccc(-c2nnc(-c3nn(-c4ccccc4)c4nc5ccccc5nc34)o2)cc1 | > 100 µM
* CCCn1c(SCC)c2ccccc2c1-c1nc(F)nc(F)n1 | > 100 µM
* NC(N)=NS(=O)(=O)c1ccc(NCc2c3ccccc3nc3ccccc23)cc1 | > 61.6 µM
* CCn1c2c(n(CC)c1=S)-c1c(n(CC)c(=S)n1CC)SSSS2 | 33.1 µM
* COc1cc(C2C(Cl)C(=O)N2NC(=O)c2ccccc2O)ccc1O (configuration not stated) | > 100 µM
* O=C1C(CN2CCCCC2)CCCC1CN1CCCCC1 (configuration not stated) | > 100 µM
* CCn1cc(/C=C/C(C)c2cn(CC)c(=O)[nH]c2=O)c(=O)[nH]c1=O (configuration not stated) | > 100 µM

* * *

- Tested on: MCF7 breast
- Protocol Notes: NCI tumour cell line growth inhibition, 48 h
Each entry below carries its recorded GI50.
Property Measured: GI50

- CC(C)CCOc1ccc(-c2n[nH]c(C(F)(F)F)c2-c2cncc(C#N)c2)c(O)c1: 2.23 µM
- COc1ccccc1-n1c(-c2cc(O)ccc2C)cn2c3c(=O)[nH]c(=O)n(C)c3nc12: > 100 µM
- N#Cc1c(-c2ccc(Cl)cc2)n(O)c2ccccc12: 2.67 µM
- Cc1nc2sccn2c(=O)c1CCN1CCC(=C(c2ccc(F)cc2)c2ccc(F)cc2)CC1: 6.88 µM
- COc1cccc(C2C(C#N)=C(N)Oc3cc(N)ccc32)c1 (stereo not drawn): 0.314 µM
- NC(CSC(c1ccccc1)(c1ccccc1)c1ccc(Cl)cc1)C(=O)O (stereo not drawn): 0.0647 µM
- COCC1CCCN1c1ccc(/C=C(/C#N)C(N)=S)cc1 (stereo not drawn): 69.4 µM
- COc1ccc(NC(=O)n2nc(N)c3ccccc32)cc1OC: 29.5 µM

* * *

- System: UACC-257 melanoma
- Protocol Notes: NCI tumour cell line growth inhibition, 48 h
Property Measured: log10(TGI) (log10 of the value in µM)

* C=C1C[C@](OC)([C@H](O)C(=O)N[C@@H](OC)[C@@H]2C[C@@H](O)C(C)(C)[C@@H](C[C@@H](COC)OC)O2)O[C@H](C)[C@@H]1C | -2.05
* CS(=O)CCCCCN=C=S (configuration not stated) | 1.29
* NC(=NCCCOc1ccc(Cl)cc1)Nc1ccc(Cl)cc1 | 0.58
* CCCCCCCC/C=C/CCCCCCCCC1=NCCN1CCO | 1.40
* COc1cc(C(=O)/C=C/c2cc(C(=O)c3cc(OC)c(OC)c(OC)c3)ccc2OC)ccc1N | 0.50
* N#Cc1c(-c2ccc(Cl)cc2)n(O)c2ccccc12 | 0.80
* O=C(NNC(=S)Nc1ccccc1)c1ccccc1Nc1ccccc1C(=O)NNC(=S)Nc1ccccc1 | 1.75
* CN(C)c1ccc(N=Cc2c([O-])ccc3ccccc23)cc1.[C-]#[O+].[C-]#[O+].[Ir] | 1.57
* Cc1nc2sccn2c(=O)c1CCN1CCC(=C(c2ccc(F)cc2)c2ccc(F)cc2)CC1 | 1.34

* * *

Consider the following compounds and their measured log10 of TGI readings.
- Test system: OVCAR-5 ovarian
- Protocol Notes: NCI tumour cell line growth inhibition, 48 h
Property Measured: log10 of TGI (log10 of the value in µM)

* COc1ccc(/C=C2\C[C@H]3[C@@H]4CCC5=C[C@@H](N6CCCC6)CC[C@]5(C)[C@H]4CC[C@]3(C)[C@H]2O)cc1 | 1.32
* Cc1ccc(-c2c(C#N)c(S)n(NS(=O)(=O)c3ccc(C)cc3)c(=O)c2C#N)cc1 | 1.83
* CCn1c2c(n(CC)c1=S)-c1c(n(CC)c(=S)n1CC)SSSS2 | 1.44
* CCNC1(c2cccc(C)c2)OC(C)(C)c2cccc3cccc1c23 (stereo not drawn) | 1.58
* C[C@H](Nc1c(O)c2c(c(O)c1Cl)C(=O)C=CC2=O)C(=O)Nc1ccc([N+](=O)[O-])cc1 | 0.55
* CC(C)C1(C)N=C(C(F)(F)F)c2cc(C(=O)C(F)(F)F)c3ccccc3c2N1 (stereo not drawn) | 1.39
* O=C1NC(Cc2c[nH]c3ccccc23)C(=O)N2C(C3CCCCC3)c3[nH]c4ccccc4c3C[C@@H]12 (stereo partly drawn) | 1.63

* * *

- Test system: COLO 205 colon
- Protocol Notes: NCI tumour cell line growth inhibition, 48 h
Property Measured: TGI

• Cc1ccc(-c2nc(SCC(=O)O)n[nH]2)cc1 = > 100 µM
• COc1ccc(N2C(=O)C3ON(C(C(N)=O)c4ccccc4)C(c4ccc(-c5ccccc5)cc4)C3C2=O)cc1 (configuration not stated) = > 50 µM
• C1CCN(CCC2CCCCN2)CC1 (configuration not stated) = > 100 µM
• COc1ccc(-c2csc(=Nc3ccccc3)n2CC(O)c2ccc([N+](=O)[O-])cc2)cc1 (configuration not stated) = > 100 µM
• COCC1OC(OC2C3=C(C(C)C)CCC3(C)/C=C3\C(CCC3(O)COC)C(C)C2O)C(O)C2OC3OC12OC3(C)C1CO1 (configuration not stated) = > 100 µM
• CC(C)C1OC(=O)C=C1Sc1ccccc1 (configuration not stated) = > 100 µM
• Cc1cc(N(CCC#N)S(C)(=O)=O)ccc1C=O = > 100 µM
• COc1cc2c(cc1OCCOS(C)(=O)=O)N=C[C@@H]1CCCN1C2=O = > 100 µM
• COc1ccc2nc3ccc(OC)cc3c(S(=O)(=O)Cc3ccc([N+](=O)[O-])cc3)c2c1 = > 100 µM
• COc1cc(-c2oc3c(OC)c(O)c(OC)c(O)c3c(=O)c2OC)cc(O)c1OC = > 100 µM
• COCC1CCCN1c1ccc(/C=C(/C#N)C(N)=S)cc1 (configuration not stated) = > 100 µM
• CC(=O)c1ccc(NC(=O)CSc2nnc(-c3cc(-c4ccc(C)cc4)nc4ccccc34)o2)cc1 = > 100 µM

* * *

- Test system: SK-OV-3 ovarian
- Protocol Notes: NCI tumour cell line growth inhibition, 48 h
Property Measured: TGI

• O=S(O)CCCCCSSCCCCSSCCCCCS(=O)O = > 100 µM
• CN(NC(=O)CCCl)C1=NCCN1 = > 100 µM
• CN1CCCNc2c(c(=O)c2=O)NCCCN(C)CCCNc2c(c(=O)c2=O)NCCCN(C)CCCNc2c(c(=O)c2=O)NCCCN(C)CCCNc2c(c(=O)c2=O)NCCCN(C)CCCNc2c(c(=O)c2=O)NCCCN(C)CCCNc2c(c(=O)c2=O)NCCCN(C)CCCNc2c(c(=O)c2=O)NCCC1 = 8.29 µM
• CC(C)(C)c1nc2c(o1)C(=O)c1ccccc1C2=O = 10.2 µM
• CC(=O)Nc1ccc(Sc2ccc([N+](=O)[O-])o2)cc1 = 20.6 µM
• O=C1C(/C=C/c2ccc(Cl)cc2)=NNC2N1N=C1NC(=O)C3(NN12)c1ccccc1-c1ccccc13 (centres undefined) = > 100 µM
• NC(=NCCCOc1ccc(Cl)cc1)Nc1ccc(Cl)cc1 = 12.3 µM
• CCCCCC(O)C1C(=O)OC(C)C(O)/C=C/C=C/C=C/C=C\C=C(\C)C(O)CC(O)CC(O)CC(O)CC(O)CC(O)CC1O (centres undefined) = > 100 µM
• CCCCn1c(C)c(C(=O)OCC)s/c1=N/Nc1nc2ccccc2nc1-c1ccccc1 = > 100 µM
• CN(C)c1ccc(/C=C(/NC(=O)c2ccccc2)c2nc3ccc(Cl)cc3[nH]2)cc1 = > 100 µM
• CC1(C)CC[C@]2(C)CC=C3[C@]4(C)CC[C@H]5C(C)(C)C(=O)CC[C@]5(C)[C@H]4CC[C@@]3(C)[C@H]2C1 = > 100 µM
• CC1(C)C(=O)C(C)(C)C12SSC1(S2)C(C)(C)C(=O)C1(C)C = > 100 µM
• COc1ccc(C2C3C(=O)C=CC(=O)C3[C@@H]2C)cc1OC (some centres undefined) = > 100 µM
• O=C1OCC(c2cccs2)=C1Cl = > 100 µM

* * *

- System: UO-31 renal
- Protocol Notes: NCI tumour cell line growth inhibition, 48 h
Property Measured: TGI

* O=C(/C=C/c1ccc(Cl)cc1)Oc1ccc(/C=C2\CCCCC2=O)cc1 | > 100 µM
* CCCc1c(OC)c(=O)c2c(OC)cc(OC)c3c4c(OC)cc(OC)c5c(=O)c(OC)c(CCC)c(c1c23)c54 | 28.9 µM
* COc1ccc(Nn2c(SCC(=O)Nc3nc(-c4ccc(Cl)cc4)cs3)nc(C)c2C)cc1 | > 100 µM
* O=C1C(/C=C/c2ccc(Cl)cc2)=NNC2N1N=C1NC(=O)C3(NN12)c1ccccc1-c1ccccc13 (stereo not drawn) | > 100 µM
* CCC[CH2][Sn]([CH2]CCC)([O]C(=O)c1cc(F)cc(F)c1)[O]C(=O)c1cc(F)cc(F)c1 | 2.75 µM
* O=C(NNC(=S)Nc1ccccc1)c1ccccc1Nc1ccccc1C(=O)NNC(=S)Nc1ccccc1 | 44.6 µM
* N#Cc1c(-c2ccco2)cc(-c2ccc(NCc3nc4ccccc4[nH]3)cc2)nc1N | 58.7 µM
* CC1(C)CC(=O)C2=C(C1)c1c(ccc3ccccc13)NC2c1cn(Cc2ccc(Cl)cc2)c2ccccc12 (stereo not drawn) | > 100 µM
* COc1ccc(N=C(C)c2ccncc2)cc1 | > 100 µM
* NC(=O)N1N=C2c3ccccc3CC[C@@H]2C1c1ccccc1 (stereo partly drawn) | > 100 µM
* CN1C2(c3ccccc3)c3c(-c4ccccc4)sc(-c4ccccc4)c3C1(c1ccccc1)C1C(=O)N(c3ccccc3)C(=O)C12 (stereo not drawn) | > 100 µM
* Clc1ccc(SCCSCCCCCCCCCCSCCSc2ccc(Cl)cc2)cc1 | > 100 µM
* CCOC(=O)c1c(C)c2c(n1C)CCc1cn[nH]c1-2 | > 100 µM
